# ASSAY_SYSTEM: AChE enzyme from electric eel (EeAChE) (type VI) (Electrophorus electricus, UniProt O42275)
# Construct: purchased Sigma-Aldrich, Steinheim, Germany type VI (catalogue number not given)
# Sequence (O42275 24-633): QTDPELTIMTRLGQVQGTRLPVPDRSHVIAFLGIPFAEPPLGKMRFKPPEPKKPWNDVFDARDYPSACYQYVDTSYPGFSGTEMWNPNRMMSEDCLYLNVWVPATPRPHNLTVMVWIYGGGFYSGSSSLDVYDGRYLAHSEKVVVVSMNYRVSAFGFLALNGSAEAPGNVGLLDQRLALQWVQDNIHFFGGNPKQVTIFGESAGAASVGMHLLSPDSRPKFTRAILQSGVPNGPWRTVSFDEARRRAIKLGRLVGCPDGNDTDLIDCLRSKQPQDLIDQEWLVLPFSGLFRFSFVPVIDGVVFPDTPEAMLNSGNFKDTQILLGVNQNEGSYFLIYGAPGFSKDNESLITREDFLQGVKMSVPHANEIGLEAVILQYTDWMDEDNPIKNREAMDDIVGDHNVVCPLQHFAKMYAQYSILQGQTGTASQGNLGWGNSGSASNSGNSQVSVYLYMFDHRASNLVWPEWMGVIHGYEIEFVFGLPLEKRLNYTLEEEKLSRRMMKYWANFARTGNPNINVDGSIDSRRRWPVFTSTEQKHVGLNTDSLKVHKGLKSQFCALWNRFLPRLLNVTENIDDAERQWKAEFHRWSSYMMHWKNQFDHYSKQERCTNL
# TEST_SUMMARY: In vitro AChE inhibition assay (modified Ellman method)
# Format: biochemical
VALUE_TYPE: IC50 (µM)
Give just the number in µM; leave the unit off.

Entry COc1ccc(/C=C/C(=O)c2ccc(Cl)cc2)cc1 , IC50 reported as 32

====

# ASSAY_SYSTEM: AChE enzyme from electric eel (EeAChE) (type VI) (Electrophorus electricus)
# Construct: purchased Sigma-Aldrich, Steinheim, Germany type VI (catalogue number not given)
# TEST_SUMMARY: In vitro AChE inhibition assay (modified Ellman method)
# Type: biochemical
# CONDITIONS: EeAChE, Ellman method, triplicate, 25 °C, pH 8.0; read-out: IC50 (AChE inhibitory activity)
IC50 values, listed per item
Give just the number in µM; leave the unit off.

Entry O=C(/C=C/c1ccccc1)c1ccc(Cl)cc1 [Compound C1] , IC50 reported as 22

Entry CCc1ccc(C(=O)/C=C/c2ccc([N+](=O)[O-])cc2)cc1 [Compound C2] , IC50 reported as 31.2

Entry O=C(/C=C/c1ccc([N+](=O)[O-])cc1)c1ccc(Br)cc1 [Compound C5] , IC50 reported as 37.6
